Field: glycan array binding signal (z-score). Provide a value for each of the binders that follow.
Target: Gal(a1-4)Gal(b1-4)GlcNAc
Experiment: glycan array binding signal (z-score within array); higher = stronger binding
Settings: glycan notation: IUPAC condensed, linker removed
The full list was thinned out, with the strongest signals kept by preference.
Give bare numbers.

Quick request: glycan array binding signal (z-score) for each listed item, please.
1. LICBM33A (Lactococcus lactis), Q9CE94 (protein) MKKLLTGLLVAAGLLSVSLLIKTDTVSAHGYVQSPPARGYQGQLDSQSLGWTAAFNIYGNVISNPQSLEAPKGFPECGPADGRIASANGGLGQIGDFVLDNQTSSRWKKTSISTGSNIFTWKYTAPHKTTKWHYYMTKTGWDQNAPLKHSELELIGTINHDGSPATNNLSHTINIPTDRSGYHIVLAVWDVADTSNAFYNVIDINVNNKNASSQVFGPFL
2. Adiponectin (Rattus norvegicus), Q8K3R4 (protein) MLLLQALLFLLILPSHEGITATEGPGALVPPPKETCAGWMAGIPGYPGHNGIPGRDGRDGTPGEKGEKGDAGVLGPKGDPGDAGMTGAEGPRGFPGTPGRKGEPGEAAYMYHSAFSVGLETRVTVPNVPIRFTKIFYNQQNHYDGSTGKFHCNIPGLYYFSYHITVYMKDVKVSLFKKDKAVLFTYDQYQEKNVDQASGSMLLHLEVGDQVWLQVYGEGDNNGLYADNVNDSTFTGFLLYHDTN
3. LSECtin (Homo sapiens), Q6UXB4 (protein) MDTTRYSKWGGSSEEVPGGPWGRWVHWSRRPLFLALAVLVTTVLWAVILSILLSKASTERAALLDGHDLLRTNASKQTAALGALKEEVGDCHSCCSGTQAQLQTTRAELGEAQAKLMEQESALRELRERVTQGLAEAGRGREDVRTELFRALEAVRLQNNSCEPCPTSWLSFEGSCYFFSVPKTTWAAAQDHCADASAHLVIVGGLDEQGFLTRNTRGRGYWLGLRAVRHLGKVQGYQWVDGVSLSFSHWNQGEPNDAWGRENCVMMLHTGLWNDAPCDSEKDGWICEKRHNC
4. UEA-I (Ulex europaeus), P22972 (protein) SDDLSFKFKNFSQNGKDLSFQGDASVIETGVLQLNKVGNNLPDETGGIARYIAPIHIWNCNTGEVASFITSFSFFMETSANPKAATDGLTFFLAPPDSPLRRAGGYFGLFEDTKDNDSSYQTVAVEFDTIGSPVNFDDPGFPHIGIDVNRVKSINAERWNKRYGLNNVANVEIIYEASSKTLTASLTYPSDQTSISVTSIVDLKEILPEWVSVGFSGGTYIGRQATHEVLNWYFTSNLIN
5. DCL-1 (Homo sapiens), Q8IX05 (protein) MLRAALPALLLPLLGLAAAAVADCPSSTWIQFQDSCYIFLQEAIKVESIEDVRNQCTDHGADMISIHNEEENAFILDTLKKQWKGPDDILLGMFYDTDDASFKWFDNSNMTFDKWTDQDDDEDLVDTCAFLHIKTGEWKKGNCEVSSVEGTLCKTAIPYKRKYLSDNHILISALVIASTVILTVLGAIIWFLYKKHSDSRFTTVFSTAPQSPYNEDCVLVVGEENEYPVQFD

[reply]
0.111
-0.311
0.114
-0.176
0.053
